Species on record: Homo sapiens
assay procedure: Compound tested for hallucinogenic activity in humans was reported; Value reported in (A)= Mescaline units
Format: functional
Let's look at some molecules and their measured Activity.
Please respond with just the number, no unit label.

Example entries begin here.
molecule: COc1ccc(OC)c(CC(C)N)c1 (stereo unspecified)
Activity: 2.5
//
molecule: COc1cc(CCN)cc(OC)c1OCC1CC1
Activity: 4
//
molecule: COc1ccc(OC)c(OC)c1CC(C)N (stereo unspecified)
Activity: 10

response.value for COc1cc(CCN)c(OC)c(C)c1C (field: Activity) = 11

response.value for COc1cc(CC(C)N)c(OC)cc1Br (stereo unspecified) (field: Activity) = 150

response.value for C=C(C)COc1c(OC)cc(CCN)cc1OC (field: Activity) = 6

response.value for COc1cc2c(cc1CC(C)N)OCO2 (stereo unspecified) (field: Activity) = 8

* * *

Species on record: Homo sapiens
assay procedure: Compound tested for hallucinogenic activity in humans was reported; Value reported in (A)= Mescaline units
Assay type: functional
metric name: Activity

Example entries begin here.
compound: COc1cc(CCN)c(OC)c2ccccc12
metric name: Activity
observed: 10
//
compound: CCSc1cc(OC)c(CCN)cc1OC
metric name: Activity
observed: 16
//
compound: COc1cc(OC)c(CC(C)N)cc1Br (stereo not given)
metric name: Activity
observed: 4
//
compound: CCOc1c(OC)cc(CCN)cc1OC
metric name: Activity
observed: 6
//
compound: CCCSc1cc(OC)c(CCNO)cc1OC
metric name: Activity
observed: 15
//
compound: CCOc1cc(OC)c(CC(C)N)cc1OC (stereo not given)
metric name: Activity
observed: 9
//
compound: CCC(Cc1ccc2c(c1)OCO2)NC (stereo not given)
metric name: Activity
observed: 1.5
//
compound: C=CCOc1c(OC)cc(CC(C)N)cc1OC (stereo not given)
metric name: Activity
observed: 11
//
compound: COc1cc(CC(C)N)cc(OC)c1Br (stereo not given)
metric name: Activity
observed: 43
//
compound: CCCc1cc(OC)c(CC(C)N)cc1OC (stereo not given)
metric name: Activity
observed: 80

response.value for COc1cc(CC(C)N)c(SC)cc1C (stereo not given) (field: Activity) = 4

response.value for CCSc1cc(CCN)cc(OC)c1OC (field: Activity) = 4

* * *

Species on record: Homo sapiens
assay procedure: Compound tested for hallucinogenic activity in humans was reported; Value reported in (A)= Mescaline units
Assay type: functional
metric name: Activity
Please respond with just the number, no unit label.

compound: CCOc1c(OC)cc(CC(C)N)cc1OC (centres undefined)
Activity: 7
//
compound: CCCCSc1c(OC)cc(CCN)cc1OC
Activity: 3
//
compound: COc1cc(CCN)c(OC)c2c1C1CCC2C1 (centres undefined)
Activity: 22
//
compound: CCCSc1cc(OC)c(CC(C)N)cc1OC (centres undefined)
Activity: 55
//
compound: CC(C)(N)Cc1ccc2c(c1)OCO2
Activity: 1.5

response.value for COc1cc(CCN)cc(SC)c1OC (field: Activity) = 4

response.value for CCOc1cc(CCN)cc(OC)c1SCC (field: Activity) = 4

response.value for CC(Cc1ccc2c(c1)OCO2)NO (centres undefined) (field: Activity) = 2.3

response.value for COCCSc1cc(OC)c(CCN)cc1OC (field: Activity) = 9

response.value for COc1cc(CC(C)N)c(OC)cc1C (centres undefined) [DOM] (field: Activity) = 50

response.value for CCc1cc(OC)c(CC(C)N)cc1OC (centres undefined) (field: Activity) = 75

All values here come from ChEMBL document CHEMBL1131120.
